biological target: Hfq Core (Escherichia coli, UniProt P0A6X3 2-69); assay: fluorescence polarization
pKd: −log10 of the molar value.
Quantity measured: pKd

Binder	Quantity measured	Number
xtal DNA, 30 bp with three 6-bp A-tracts (dsDNA) DNA 1: CGGCAAAAAACGGCAAAAAACGGCAAAAAA DNA 2: TTTTTTGCCGTTTTTTGCCGTTTTTTGCCG	pKd	7.03

Each recorded value in this set is attributed to paper PMC7144919.
